B1: Hairpin Ribozyme (parent)
chain: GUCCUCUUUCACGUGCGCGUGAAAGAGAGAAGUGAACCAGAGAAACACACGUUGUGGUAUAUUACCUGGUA

# Variants of: B1
# ASSAY_TEXT: self-cleavage, relative activity (ratio to wild type); higher = more cleavage; co-transcriptional
MEASURED_QUANTITY: self-cleavage

Completed entries (count: 5):
mutation_code="A26U U62C" value_reported=0.192
mutation_code="A45U C48A" value_reported=0.14
mutation_code="C18G G54A" value_reported=0.51
mutation_code="U7C A59U" value_reported=0.178
mutation_code="A31C U62C" value_reported=0.0677

(Q) Which value of self-cleavage has been reported for A49G C65U in the records?
(A) 0.107
